Examples of compounds with documented growth follow.
System: PC-3 prostate
experiment: NCI-60 one-dose screen, 48 h (100 = growth as untreated, 0 = no growth, -100 = all killed)
test-conditions: 10 µM unless noted
This is part of a sample that, as a whole, favours compounds with a hit. Of some 83,000 tested, about 20% had one in any assay.
quantity-kind: growth (%)

| compound | quantity-kind | readout-value |
| --- | --- | --- |
| CCN(CC)CCOc1ccc(/C(=C(\C)c2ccc(OC)c(F)c2)c2ccc(Cl)cc2)cc1 | growth | 64.8 |
| CC(c1ccc(-n2cccn2)cc1)c1cnc(N2CCc3ccc(C(N)=O)cc3C2)s1 (centres undefined) | growth | 59.1 |
| CC1(C)CC(=O)c2c(ccc(C(=O)C[C@H](N)CO)c2N)O1 | growth | 45.3 |
| CCCN1CCN(c2ccc3nc(-c4ccc5nc(-c6cc(OC)c(OC)c(OC)c6)[nH]c5c4)[nH]c3c2)CC1 | growth | 70.7 |
| CCOC(=O)c1nnn(-c2ccccc2)c1C1=CN(C)CCC1 | growth | 96.4 |
| O=C1Nc2ccccc2/C1=N/N=C/c1ccc(OC2OC(CO)C(O)C(O)C2O)cc1 (centres undefined) | growth | 105 |
| C=C1C(=O)O[C@H]2[C@H]1CC/C(COC(=O)/C=C\C(=O)NCc1ccc(Cn3c(=O)sn(CCCC)c3=O)cc1)=C\CC[C@@]1(C)O[C@@H]21 | growth | -59.7 |
| Clc1ccc(/C=C/c2nc(Nc3ccc(Cl)cc3)c3ccccc3n2)cc1 | growth | 99.2 |
| Cc1nc(Nc2ccc(NC(=S)Nc3ccccc3)cc2)nc2nc(SCc3ccccc3)[nH]c(=O)c12 | growth | 100 |

====

Tested on: SNB-75 CNS
experiment: NCI-60 one-dose screen, 48 h
test-conditions: 10 µM unless noted
This is part of a sample that, as a whole, favours compounds with a hit. Of some 83,000 tested, about 20% had one in any assay. Calls of active or inactive are those of the source. Rule for the calls: active = growth percent below 10; inactive = the rest.
Outcomes: active, inactive

| compound | assay-system | category-label |
| --- | --- | --- |
| CCOC(=O)C1=C(C)NC(SCc2nnc(-c3ccc(Cl)cc3)o2)=NC1c1ccc(Cl)cc1Cl (stereo not given) | SNB-75 CNS | inactive |
| Clc1ccc(-c2nnc(Cn3ccnc3)o2)cc1 | SNB-75 CNS | inactive |
| C=C1C(=O)O[C@H]2[C@H]1CC/C(Cn1cc(CNCCc3c[nH]c4ccccc34)nn1)=C\CC[C@@]1(C)O[C@@H]21 | SNB-75 CNS | inactive |
| Cc1cc(N2CCCCC2)nc(N(CCNc2ccnc3cc(Cl)ccc23)Cc2ccccn2)n1 | SNB-75 CNS | inactive |
| CCC(=O)OC1=C(C)SC2=NC(c3ccc(Cl)c(Cl)c3)=CC(c3cc(OC)c(OC)c(OC)c3)N21 (stereo not given) | SNB-75 CNS | inactive |
| CCCCOc1ccc(NC(=O)n2nc(N=NN(C)C)c3ccc(Cl)cc32)cc1 | SNB-75 CNS | inactive |
| CN1CCN(C2=C(Cl)C(=O)c3ccccc3C2=O)CC1 | SNB-75 CNS | inactive |
| N#Cc1c(N)nc2c(nnn2-c2cccc(C(F)(F)F)c2)c1N | SNB-75 CNS | inactive |
| Cc1ccc(S(=O)(=O)N(CC[C@@H]2C[C@H]2c2cc3ccccc3o2)C(=O)NC2CCCCC2)cc1 | SNB-75 CNS | inactive |
| CN(C)CCn1cc(-c2ccc3c(Nc4ccc(CC(=O)Nc5cccc(F)c5)cc4)ncnc3c2)cn1 | SNB-75 CNS | active |
| CCN1CCN(c2ccc(Nc3cc(-c4cccnc4Nc4c(Cl)c(OC)cc(OC)c4Cl)ncn3)cc2)CC1 | SNB-75 CNS | inactive |
| Cc1cc(C(c2ccccc2)c2ccccc2)ccc1NS(=O)(=O)c1ccccc1 | SNB-75 CNS | inactive |
| C=C(C=O)[C@@H]1CC=C(C=O)CC1 | SNB-75 CNS | inactive |
| Cc1nc2ccccc2c(/C=C/c2ccc(Cl)cc2)c1C(=O)/C=C/c1ccc(Cl)cc1 | SNB-75 CNS | inactive |
| O=C(O)c1ccc(CO)o1 | SNB-75 CNS | inactive |
| N#Cc1cnn2c(-c3ccc(Cl)cc3)nc(NCCc3ccccc3)nc12 | SNB-75 CNS | inactive |
| N#C/C(=C\c1ccc(Br)cc1)n1nnc2ccccc21 | SNB-75 CNS | inactive |
| O=S(=O)(NCCNc1cc(-c2c(-c3cccc(O)c3)nc3sccn23)ccn1)c1ccc(Cl)cc1 | SNB-75 CNS | active |
| CCN(CC)c1ccc(Nc2ccc(CC(=O)c3ccccc3)cc2)cc1 | SNB-75 CNS | inactive |
| CN(C)CCN1C(=O)c2cccc3c(-c4ccc(-c5nc6c7ccccc7c7ccccc7c6[nH]5)cc4)ccc(c23)C1=O | SNB-75 CNS | inactive |
